Data provenance is PubChem BioAssay (NCI).

assay.summary: NCI Yeast Anticancer Drug Screen. Data for the rad50 strain (AID 155);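 note: 0% = growth of vehicle-only cultures of the same strain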
particulars: S. cerevisiae rad50 strain growth inhibition; at 50.0 µM
This is part of a sample that, as a whole, favours compounds with a hit. Of some 79,000 tested, about 15% had one in any assay. Activity calls are given as the source filed them. Cut-off read from the data, not from the text of the source: active = growth inhibition above about 70%; inactive = the rest.
Respond only with the outcome that fits, drawn from class 1 for active, class 0 for inactive

[
  {
    "compound": "COc1cc2c(cc1OC)[C@@H]1C(=O)c3ccc4c(c3O[C@@H]1CO2)C[C@H](C(C)C)O4",
    "label.class": "class 0"
  }
]

Tell me the assay call for COC(=O)C[N+]1(C)C2CCC1CC(O)C2 (stereo not given) please.
class 0

Outcome? CC(C)NCc1ccccc1
class 0
